Target: UniProtKB P21462
Sequence (P21462 whole entry): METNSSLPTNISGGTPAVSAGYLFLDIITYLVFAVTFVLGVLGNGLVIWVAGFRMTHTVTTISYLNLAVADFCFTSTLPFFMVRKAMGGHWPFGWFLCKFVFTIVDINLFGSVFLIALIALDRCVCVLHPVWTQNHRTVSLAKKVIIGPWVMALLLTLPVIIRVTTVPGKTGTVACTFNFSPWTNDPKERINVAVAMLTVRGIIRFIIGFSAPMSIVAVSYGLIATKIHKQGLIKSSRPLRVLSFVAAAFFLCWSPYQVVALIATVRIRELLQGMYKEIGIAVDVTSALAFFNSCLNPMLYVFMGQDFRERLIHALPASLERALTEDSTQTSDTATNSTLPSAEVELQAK
Assay: FPR1 cyclic adenosine monophosphate (cAMP) assay
Conditions: CHO cells overexpressing human FPR1; forskolin 10 µM; inhibition of cAMP production; read-out: hFPR1 cAMP EC50
pEC50: −log10 of the molar value.
Use True when the recorded pEC50 is no lower than 7; use False when it is lower.

Task item: Is it the case that COc1cc(F)c([C@@H]2CN(c3ccc(=O)n(C)c3)C(=O)[C@H]2NC(=O)c2ccc(OC(F)(F)F)cc2)c(F)c1 [Example 26] has pEC50 reaching or exceeding 7?
Reply: True

Task item: Is it the case that CC(O)Cn1cccc(N2C[C@@H](c3ccc(Cl)cc3)[C@H](NC(=O)c3ccc(OC(F)F)cc3)C2=O)c1=O (stereo partly shown) [Example 409] has pEC50 reaching or exceeding 7?
Reply: True

Task item: Is it the case that COc1cc(F)c([C@@H]2CN(c3cccnn3)C(=O)[C@H]2NC(=O)c2ccc(OC(F)F)cc2)c(F)c1 [Example 300] has pEC50 reaching or exceeding 7?
Reply: False

Task item: Is it the case that COCC(C(=O)N1CCOCC1)n1ccc(C)c(N2C[C@@H](c3c(F)cc(OC)cc3F)[C@H](NC(=O)c3ccc(OC(F)F)cc3)C2=O)c1=O (stereo partly shown) [Example 131] has pEC50 reaching or exceeding 7?
Reply: True

Task item: Is it the case that COc1cc(F)c([C@@H]2CN(Cc3ccccc3P(C)(C)=O)C(=O)[C@H]2NC(=O)c2ccc(OC(F)F)cc2)c(F)c1 [Example 18] has pEC50 reaching or exceeding 7?
Reply: False

Task item: Is it the case that COCCn1c2c(cc(N3C[C@@H](c4c(F)cc(OC)cc4F)[C@H](NC(=O)c4ccc(Cl)cc4)C3=O)c1=O)CCCC2 [Example 461] has pEC50 reaching or exceeding 7?
Reply: True

Task item: Is it the case that COc1cc(F)c([C@@H]2CN(c3ccnn(CCO)c3=O)C(=O)[C@H]2NC(=O)c2ccc(OC(F)(F)F)cc2)c(F)c1 [Example 356] has pEC50 reaching or exceeding 7?
Reply: True

Task item: Is it the case that COc1cc(F)c([C@@H]2CN(c3nccc(N4C[C@@H]5C[C@H]4CN5C)c3C#N)C(=O)[C@H]2NC(=O)c2ccc(Cl)cc2)c(F)c1 [Example 160] has pEC50 reaching or exceeding 7?
Reply: False

Task item: Is it the case that COc1cc(F)c([C@@H]2CN(c3nccc(OC4CCOC4)c3C(F)(F)F)C(=O)[C@H]2NC(=O)c2ccc(Cl)cc2)c(F)c1 (stereo partly shown) [Example 708] has pEC50 reaching or exceeding 7?
Reply: False

Task item: Is it the case that COCC(CO)n1cccc(N2C(=O)[C@@H](NC(=O)c3ccc(OC(F)(F)F)cc3)[C@H](c3c(F)cc(OC)cc3F)[C@@H]2C)c1=O (stereo partly shown) [Example 293] has pEC50 reaching or exceeding 7?
Reply: True

Task item: Is it the case that COc1cc(F)c([C@@H]2CN(c3nc(C4CCN(CCO)CC4)ccc3F)C(=O)[C@H]2NC(=O)c2ccc(OC(F)F)cc2)c(F)c1 [Example 590] has pEC50 reaching or exceeding 7?
Reply: False

Task item: Is it the case that COc1cc(F)c([C@H]2[C@H](NC(=O)c3ccc(OC(F)F)cc3)C(=O)N(c3cccc(C4CCCN(C)C4)n3)[C@H]2C)c(F)c1 (stereo partly shown) [Example 513] has pEC50 reaching or exceeding 7?
Reply: False
